PROCEDURE SUMMARY: Drug uptake in C57BL/6J mouse brain at 10 mg/kg, ip after 1 hr by LC-MS/MS analysis
Type: ADME, organism-based
Set-up: dose 10 mg/kg, route intraperitoneal
CONDITION CONTEXT: read-out: Drug uptake
READOUT LABEL: concentration at 1 h (ng/mL)
The response must be a number in ng/mL with no trailing unit.

Query :: What measured concentration at 1 h goes with `COc1cc2nc(C3CC3)nc(N3CCN(c4ccccc4OC)CC3)c2cc1OC` ?
Result :: 924

====

PROCEDURE SUMMARY: Effective permeability of the compound at 50 uM after 30 mins at donor pH 5 and acceptor pH 7.4 by PAMPA
Type: ADME
CONDITION CONTEXT: pH 5, 0.5 h
READOUT LABEL: Peff
Remember to quote the unit after the number.

Query :: Given `COc1cc2nc(C3CC3)nc(N3CCN(c4ccccc4OC)CC3)c2cc1OC` , state its recorded Peff.
Result :: 1160 ×10⁻⁶ cm/s
